Form field: Kd (one value per entry).
target: M-group HIV-1 Nef variants; test: SPR binding to M-group HIV-1 Nef variants; settings: HIV-1 Nef proteins

# Compound, Kd
records = [
    ("O=C1CCC(N2Cc3c(OCC(=O)N4CCC(c5nn(-c6nc7cc(Cl)ccc7[nH]6)c(O)c5CCc5ccc(F)cc5)CC4)cccc3C2=O)C(=O)N1 (centres unmarked) [FC-14367]", "< 1000 nM"),
]

Exercise: Requested read-out: Kd. Entry: O=C(COc1ccc(CCc2c(-c3ccc(C(F)(F)F)cc3)nn(-c3nc4cc(Cl)ccc4[nH]3)c2O)cc1)NCCNc1cccc2c1C(=O)N(C1CCC(=O)NC1=O)C2=O (centres unmarked) [FC-14369]
Solution: < 1000 nM
